- System: K-562
- testMethodNotes: Inhibition of cells growth by colorimetric assay (SRB)
- experimentalConditions: Homo sapiens, K562, 48 h, read-out: TGI K562
- Description: This form of the assay employs 96 well cell culture microplates of 9 mm diameter (Faircloth, 1988; Mosmann, 1983). Most of the cell lines are obtained from American Type Culture Collection (ATCC) derived from different human cancer types. […] The values for mean +/− SD of data from triplicate wells are calculated. Some parameters for cellular responses can be calculated: GI=growth inhibition, TGI=total growth inhibition (cytostatic effect) and LC=cell killing (cytotoxic effect).
Friendly reminder: IC (TGI) below 800 nM is Yes, at or above is No.

CCCCCCCCCCCCCCCC(=O)NC1CS[C@@H]2c3c(OC(C)=O)c(C)c4c(c3[C@H](COC1=O)N1C2[C@@H]2N[C@@H](Cc3cc(C)c(OC)c(O)c32)[C@@H]1C#N)OCO4 (stereo partly drawn); No
C=CCN1[C@@H]2c3c(cc(C)c(OC)c3O)C[C@H]1[C@H](C#N)N1C2[C@@H]2SC[C@H](NC(=O)c3cc4ccccc4oc3=O)C(=O)OC[C@H]1c1c3c(c(C)c(OC(C)=O)c12)OCO3 (stereo partly drawn); Yes
COc1c(C)cc2c(c1O)[C@H]1N[C@@H](C2)[C@H](C#N)N2C1[C@@H]1SCC(NC(C)=O)C(=O)OC[C@H]2c2c3c(c(C)c(OC(C)=O)c21)OCO3 (stereo partly drawn); Yes
COc1c(C)cc2c(c1O)[C@@H]1C3[C@@H]4SC[C@]5(NCCc6c5[nH]c5ccccc65)C(=O)OC[C@@H](c5c6c(c(C)c(OC(C)=O)c54)OCO6)N3[C@@H](C#N)[C@H](C2)N1C (stereo partly drawn); Yes
C=CCN1[C@@H]2c3c(cc(C)c(OC)c3O)C[C@H]1[C@H](C#N)N1C2[C@@H]2SCC(N)C(=O)OC[C@H]1c1c3c(c(C)c(OC(C)=O)c12)OCO3 (stereo partly drawn); No
C=CCN1[C@@H]2c3c(cc(C)c(OC)c3O)C[C@H]1[C@H](C#N)N1C2[C@@H]2SCC(NC(=O)CCCCCCCCCCCCCCC)C(=O)OC[C@H]1c1c3c(c(C)c(OC(C)=O)c12)OCO3 (stereo partly drawn); No
C=CCN1[C@@H]2c3c(cc(C)c(OC)c3OC(=O)/C=C/c3ccccc3)C[C@H]1[C@H](C#N)N1C2[C@@H]2SCC(NC(=O)C(F)(F)F)C(=O)OC[C@H]1c1c3c(c(C)c(OC(C)=O)c12)OCO3 (stereo partly drawn); No
COc1c(C)cc2c(c1O)[C@H]1N[C@@H](C2)[C@H](C#N)N2C1[C@@H]1SCC(NC(=O)C(F)(F)F)C(=O)OC[C@H]2c2c3c(c(C)c(OC(C)=O)c21)OCO3 (stereo partly drawn); Yes

Confirm or reject: IC (TGI) of COC1=C(C)C(=O)C2=C(C1=O)[C@@H]1C3[C@@H]4SC[C@]5(NCCc6c5[nH]c5ccccc65)C(=O)OC[C@@H](c5c6c(c(C)c(OC(C)=O)c54)OCO6)N3[C@@H](C#N)[C@H](C2)N1C (stereo partly drawn) lies strictly below 800 nM Yes

Confirm or reject: IC (TGI) of C=CCOc1c(C)c2c(c3c1CC1[C@H]4c5c(cc(C)c(OC)c5O)C[C@@H]([C@H](C#N)N1[C@H]3CO)N4C)OCO2 (stereo partly drawn) lies strictly below 800 nM No

Confirm or reject: IC (TGI) of C=CCN1[C@@H]2c3c(cc(C)c(OC)c3O)C[C@H]1[C@H](C#N)N1C2[C@@H]2SCC(NC(=O)C(F)(F)F)C(=O)OC[C@H]1c1c3c(c(C)c(OC(C)=O)c12)OCO3 (stereo partly drawn) lies strictly below 800 nM Yes
